The values you see were collected from PubChem BioAssay AID602264.

assay.target: Mu-type opioid receptor (Homo sapiens) + Delta-type opioid receptor (Homo sapiens) (UniProt P35372+P41143)
Sequence (P35372 whole entry, looked up): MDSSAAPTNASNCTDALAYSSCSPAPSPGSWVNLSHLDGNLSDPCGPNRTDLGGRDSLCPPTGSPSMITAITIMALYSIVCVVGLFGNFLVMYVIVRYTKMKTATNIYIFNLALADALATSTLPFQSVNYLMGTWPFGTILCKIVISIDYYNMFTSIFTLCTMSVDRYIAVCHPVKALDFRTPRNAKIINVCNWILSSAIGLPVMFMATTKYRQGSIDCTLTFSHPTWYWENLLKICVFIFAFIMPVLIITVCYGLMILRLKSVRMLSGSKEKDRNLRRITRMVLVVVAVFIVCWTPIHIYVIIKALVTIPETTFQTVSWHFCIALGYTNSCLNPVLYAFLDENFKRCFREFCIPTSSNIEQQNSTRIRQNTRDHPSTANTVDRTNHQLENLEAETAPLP
Sequence (P41143 whole entry, looked up): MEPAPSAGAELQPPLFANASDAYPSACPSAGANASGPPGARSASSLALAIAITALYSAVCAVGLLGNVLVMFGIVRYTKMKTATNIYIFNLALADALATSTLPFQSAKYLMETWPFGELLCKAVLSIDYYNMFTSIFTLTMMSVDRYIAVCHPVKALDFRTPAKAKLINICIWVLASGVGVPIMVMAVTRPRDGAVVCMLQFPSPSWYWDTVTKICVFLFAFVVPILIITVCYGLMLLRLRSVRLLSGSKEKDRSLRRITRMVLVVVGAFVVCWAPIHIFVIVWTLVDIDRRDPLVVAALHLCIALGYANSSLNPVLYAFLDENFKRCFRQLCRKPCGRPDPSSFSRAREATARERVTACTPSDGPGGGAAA
protocol.summary: OPRM1-OPRD1 heterodimer agonist potency – cell-based, luminescence, counter-screen for MC4R biased agonist project, dose response (AID 602264)
recorded.conditions: cell-based OPRM1-OPRD1 heterodimerization
Active and inactive are the calls of the source. The rule behind the calls is not given here.
quantity.name: EC50

Observe how each entry below is paired with its result.
Exercise: What value of EC50 has been reported for the following molecule? `COc1ccc(-c2sc3ccc(N4CCOCC4)cc3c2C#CC2(O)CCCCC2)cc1`
Solution: > 64.6 µM (inactive)

Exercise: One more molecule: `CN(C)CCCNC(=O)c1ccc(-c2nc(-c3ccc(Cl)cc3)cs2)cc1`
Solution: > 64.6 µM (inactive)

Exercise: Now give it for `CN(C)CCCN(C(=O)CCc1ccccc1)c1nc2ccc(Cl)cc2s1` too.
Solution: > 92.4 µM (inactive)

Exercise: Repeat for the following molecule: `COc1ccc(COc2ccsc2C(=O)Nc2ccc(Cl)c(Cl)c2)cc1`
Solution: > 64.6 µM (inactive)

Exercise: Queued: COC(=O)c1c(NC(=O)CC2SC(N)=NC2=O)sc2c1CCC(C(C)(C)C)C2 (stereo not given)
Solution: > 92.5 µM (inactive)

For every item below, please supply its EC50.
1. COc1cc(NS(=O)(=O)c2ccc(NC(=S)NC(=O)c3sc4ccccc4c3Cl)cc2)ncn1
2. COc1ccc(C(NC(=O)C2CCN(CCOc3ccc(Cl)cc3Cl)CC2)c2ccccc2C)cn1 (stereo not given)

Solution:
> 92.4 µM (inactive)
> 64.6 µM (inactive)

Items follow; give EC50 for each.
1. COc1cccc(-c2cnc3c(NC=O)cc(-c4cccc(C(=O)N(C)C)c4)cn23)c1
2. NC(N)=Nc1nc(-c2ccccc2)c2cc(Cl)ccc2n1
3. CCC(C)NC(=O)c1c(N)n(/N=C/c2cccnc2)c2nc3ccccc3nc12 (stereo not given)
4. C/C(=C\c1ccco1)C1C(C#N)=C(N)Oc2n[nH]c(-c3ccc(C)cc3)c21 (stereo not given)
5. CN(C)CCOc1ccc(-c2c(-c3ccccc3)sc3ccccc23)cc1
6. COc1ccc(NC(=O)Nc2nc(C(N)Cc3ccc(C(F)(F)F)cc3)cs2)cc1 (stereo not given)
7. NC(c1ccccc1)c1csc(NC(=O)Nc2ccccc2Oc2ccccc2)n1 (stereo not given)
8. Cc1nc(NC(=O)c2cccc(-c3cc4ccccc4oc3=O)c2)ccc1Br

Solution:
["> 64.6 µM (inactive)", "> 10.3 µM (inactive)", "> 92.4 µM (inactive)", "> 64.6 µM (inactive)", "> 92.5 µM (inactive)", "> 64.6 µM (inactive)", "> 92.5 µM (inactive)", "> 64.6 µM (inactive)"]

Hey, can you go through the list below and give me EC50 for every item?
1. CC1CCC(C(C)C)C(OC(=O)C[n+]2cc(-c3ccc(Cl)cc3)n3c2CCCCC3)C1 (stereo not given)
2. CCOC(=O)Cc1csc(NC(=O)c2sc3nc4cc(C)ccc4cc3c2N)n1
3. Cc1ccc(C(=O)Cn2c(C(=O)/C=C/c3ccccc3)nc3ccccc32)cc1
4. Cc1ccc2[nH]c(=O)c3cc(C(=O)N(CCCOC(C)C)Cc4ccco4)sc3c2c1
5. CC(=O)Nc1cc(-c2ccccc2)cn2c(-c3ccc(F)c(Cl)c3)cnc12
6. FC(F)(F)c1cccnc1Oc1ccc(C2=NCCS2)cc1
7. NC(c1csc(NC(=O)Nc2cccc(Cl)c2)n1)C1CCCCC1 (stereo not given)
8. Cc1cccnc1C(NC(=O)C1CCN(CCOc2ccc(Cl)cc2Cl)CC1)c1ccc(Cl)cc1 (stereo not given)

Solution:
["> 92.5 µM (inactive)", "> 92.4 µM (inactive)", "> 64.6 µM (inactive)", "> 92.5 µM (inactive)", "> 92.5 µM (inactive)", "> 92.4 µM (inactive)", "> 92.5 µM (inactive)", "inactive"]

Quick one: give me EC50 for each item below, same order please.
1. Cc1nnnn1/C(=C\c1ccccc1)C(=O)OCC(=O)Nc1ccc(Cl)cc1F
2. COc1cccc(-c2cnc3c(NC=O)cc(-c4ccc(O)c(OC)c4)cn23)c1
3. Cc1ccc(C(=O)NCCNc2nc3cc(C)c(C)cc3cc2C)cc1
4. Clc1ccc(/C=N/NC2=Nc3cccc4cccc2c34)cc1
5. O=C(NC(c1ccccc1)c1ccc2ccccc2n1)C1CCN(CCOc2ccc(Cl)cc2Cl)CC1 (stereo not given)
6. COc1ccc(-c2cc(NC(C)=O)c3ncc(-c4cccc(C(F)(F)F)c4)n3c2)c(OC)c1
7. Cc1ccc2nc(Nc3ccc4[nH]c(=O)[nH]c4c3)c(-n3nc(C)cc3C)nc2c1

Solution:
> 92.5 µM (inactive)
> 64.6 µM (inactive)
> 64.6 µM (inactive)
> 92.4 µM (inactive)
inactive
> 92.5 µM (inactive)
> 64.6 µM (inactive)

Batch: EC50 for all items listed.
1. Cc1cc(N2CCN(C(=O)c3ccco3)CC2)n2nc(-c3cccc(Cl)c3)cc2n1
2. COc1ccc(CNC(=O)Nc2nc(C(N)Cc3ccc(C(F)(F)F)cc3)cs2)cc1 (stereo not given)
3. CC(=O)Nc1cc(-c2cccc(F)c2)cn2c(-c3ccc(F)cc3)cnc12
4. CC(=O)Nc1cc(-c2ccc(C(=O)NC3CC3)cc2)cn2c(-c3cccc(C(C)=O)c3)cnc12

Solution:
1: > 64.6 µM (inactive); 2: > 64.6 µM (inactive); 3: > 92.5 µM (inactive); 4: > 64.6 µM (inactive)

Okay, here is my list. What is EC50 for each of these?
1. Cc1ccc(NC(=O)c2ccccc2OCC(=O)c2ccc(F)cc2)cc1
2. Cc1ccc(-c2csc3nc4c5ccccc5c(NCCCN(C)C)nn4c(=O)c23)cc1
3. CC(=O)Nc1cc(-c2cccc(NS(C)(=O)=O)c2)cn2c(-c3ccccc3)cnc12
4. COc1cccc(/C=C2/SC(=S)N(CCCC(=O)Nc3ccc(O)cc3)C2=O)c1

Solution:
["> 92.5 µM (inactive)", "> 64.6 µM (inactive)", "> 92.5 µM (inactive)", "> 92.5 µM (inactive)"]

Below are 2 molecules. Give each one its EC50.
1. CC(=O)Nc1cc(-c2ccc(C(=O)N3CCOCC3)cc2)cn2c(-c3ccccc3)cnc12
2. CN(C)CCNC(=O)c1cccc(-c2cnc3c(NC=O)cc(-c4cccc(C(F)(F)F)c4)cn23)c1

Solution:
["> 92.5 µM (inactive)", "> 64.6 µM (inactive)"]
